- Test system: cotton aphid (Aphis gossypii)
- experiment: Cotton aphid test in the same manner, more definitive percent mortality at selected rates and exposure times (Table 3)
- Assay type: in vivo
- experimental-conditions: 100 ppm; 168 hours exposure
Documented Percent Mortality of Cotton Aphid on Cotton Plants across a set of compounds
readout-type: Percent Mortality of Cotton Aphid on Cotton Plants (%)

- compound: "CN1CCN(C2Cc3ccccc3Oc3ccc([S+]([O-])C(F)(F)F)cc32)CC1 (stereo not shown)"
  units: "%"
  value-reported: 32
- compound: "CN1CCN(C2Cc3ccccc3Oc3ccc(I)cc32)CC1 (stereo not shown)"
  units: "%"
  value-reported: 75
- compound: "CN1CCN(C2Cc3ccccc3Oc3c(Cl)cc(Cl)cc32)CC1 (stereo not shown)"
  units: "%"
  value-reported: 41
- compound: "CN1CCN(C2Cc3ccccc3Oc3ccc(OC(F)(F)F)cc32)CC1 (stereo not shown)"
  units: "%"
  value-reported: 100
- compound: "CN1CCN(C2=Nc3ccccc3Sc3ccc(OC(F)(F)F)cc32)CC1"
  units: "%"
  value-reported: 51
- compound: "Cc1cc(Br)cc2c1Oc1ccccc1CC2N1CCN(C)CC1 (stereo not shown)"
  units: "%"
  value-reported: 55
- compound: "CN1CCCN(C2Cc3ccccc3Oc3ccc(OC(F)(F)F)cc32)CC1 (stereo not shown)"
  units: "%"
  value-reported: 100
- compound: "C=Cc1ccc2c(c1)C(N1CCN(C)CC1)Cc1ccccc1O2 (stereo not shown)"
  units: "%"
  value-reported: 53
- compound: "CN1CCN(C2Cc3ccccc3Oc3ccc(SC(F)(F)F)cc32)CC1 (stereo not shown)"
  units: "%"
  value-reported: 86
- compound: "CN1CCN(C2Cc3ccccc3Oc3cc(OC(F)(F)F)ccc32)CC1 (stereo not shown)"
  units: "%"
  value-reported: 35
- compound: "CSc1ccc2c(c1)C(N1CCN(C)CC1)Cc1ccccc1O2 (stereo not shown)"
  units: "%"
  value-reported: 57
- compound: "CN1CCN(C2Cc3ccccc3Oc3ccc(F)cc32)CC1 (stereo not shown)"
  units: "%"
  value-reported: 61
- compound: "CN1CCN(C2Cc3ccccc3Oc3ccc(Br)cc32)CC1 (stereo not shown)"
  units: "%"
  value-reported: 100
- compound: "CN1CCN(C2Cc3ccccc3Oc3ccc(Cl)cc32)CC1 (stereo not shown)"
  units: "%"
  value-reported: 74
- compound: "C[N+]1([O-])CCN(C2Cc3ccccc3Oc3ccc(OC(F)(F)F)cc32)CC1 (stereo not shown)"
  units: "%"
  value-reported: 100
- compound: "CN1CCN(C2Cc3ccc(F)cc3Sc3ccc(OC(F)(F)F)cc32)CC1 (stereo not shown)"
  units: "%"
  value-reported: 100
- compound: "CN1CCN(C2Cc3ccccc3Oc3c(F)cc(Br)cc32)CC1 (stereo not shown)"
  units: "%"
  value-reported: 35
- compound: "C#Cc1ccc2c(c1)C(N1CCN(C)CC1)Cc1ccccc1O2 (stereo not shown)"
  units: "%"
  value-reported: 35
- compound: "CN1CCN(C2Cc3ccccc3Oc3ccc(C(F)(F)F)cc32)CC1 (stereo not shown)"
  units: "%"
  value-reported: 69

----------
- Test system: cotton aphid (Aphis gossypii)
- experiment: Cotton aphid test in the same manner, more definitive percent mortality at selected rates and exposure times (Table 3)
- Type: in vivo
- experimental-conditions: 100 ppm; 168 hours exposure
Some compounds, each annotated with its measured Percent Mortality of Cotton Aphid on Cotton Plants.
readout-type: Percent Mortality of Cotton Aphid on Cotton Plants (%)

- compound: "CN1CCN(C2Cc3ccccc3Oc3ccc(S(=O)(=O)C(F)(F)F)cc32)CC1 (stereo not shown)"
  units: "%"
  value-reported: 37
- compound: "C[N+]1([O-])CCN(C2Cc3ccccc3Sc3ccc(OC(F)(F)F)cc32)CC1 (stereo not shown)"
  units: "%"
  value-reported: 82
- compound: "CN1CCN(C2Cc3ccccc3Oc3cc(Cl)c(Cl)cc32)CC1 (stereo not shown)"
  units: "%"
  value-reported: 98
- compound: "CCc1ccc2c(c1)C(N1CCN(C)CC1)Cc1ccccc1S2.O=S(=O)(O)O (stereo not shown)"
  units: "%"
  value-reported: 90
